- Test system: Candida albicans
- METHOD NOTES: Antimicrobial activity against Candida albicans 10231 assessed as growth inhibition by agar dilution-streak method
- Assay type: functional
MEASUREMENT KIND: MIC

- LINE NOTATION: "CCn1c(O)c(C(=O)O)c(=O)c2cc3c(cc21)OCO3"
  MIC: "> 100 µg/mL"
- LINE NOTATION: "CCn1cc(C(=O)O)c(=O)c2cccc(C)c21"
  MIC: "> 100 µg/mL"
- LINE NOTATION: "CCn1c(C)c(C(=O)O)c(=O)c2cc3c(cc21)OCO3"
  MIC: "> 100 µg/mL"
- LINE NOTATION: "CCn1cc(C(=O)O)c(=O)c2cc(Cl)ccc21"
  MIC: "> 40 µg/mL"
- LINE NOTATION: "CCn1cc(C(=O)O)c(=O)c2cc3c(cc21)OCO3"
  MIC: "> 40 µg/mL"

Any idea what MIC was measured for CCn1cc(C(=O)O)c(=O)c2ccc(C)cc21 ?
> 100 µg/mL

Consider the molecule CCn1cc(C(=O)O)c(=O)c2cc(C)ccc21 and give its measured MIC.
> 100 µg/mL

---

- System: Staphylococcus aureus
- METHOD NOTES: Antimicrobial activity against Staphylococcus aureus ATCC […] assessed as growth inhibition by agar dilution-streak method
- Assay type: functional
MEASUREMENT KIND: MIC (mg/L)

Below: 2 compounds and their reported MIC.
- COMPOUND: "CCn1cc(C(=O)O)c(=O)c2cc3c(cc21)OCO3 [OXOLINIC ACID]"
  MIC (mg/L): 5
- COMPOUND: "CCn1cc(C(=O)O)c(=O)c2cc(C)ccc21"
  MIC (mg/L): 40

(I) CCn1cc(C(=O)O)c(=O)c2ccc(C)cc21
(II) CCn1cc(C(=O)O)c(=O)c2cc(Cl)ccc21
Hello, I am sorting some records. Could you say if I or II has the smaller MIC value? The response must carry the label of the picked entry.
I
(I: 40 mg/L, II: 100 mg/L)

---

- Test system: Escherichia coli
- METHOD NOTES: Antimicrobial activity against Escherichia coli 9637 assessed as growth inhibition by agar dilution-streak method
- Assay type: functional
MEASUREMENT KIND: MIC (µg/mL)

// below: answered compounds
- COMPOUND: "CCn1cc(C(=O)O)c(=O)c2cc3c(cc21)OCO3 [OXOLINIC ACID]"
  MIC, µg/mL: 1.25
- COMPOUND: "CCn1cc(C(=O)O)c(=O)c2cc(Cl)ccc21"
  MIC, µg/mL: 20

(A) CCn1cc(C(=O)O)c(=O)c2cc(C)ccc21
(B) CCn1cc(C(=O)O)c(=O)c2ccc(C)cc21
Compare reported MIC values for A and B . Which is lower? Reply briefly: the label of your chosen item.
B
(B: 2.5 µg/mL, A: 20 µg/mL)

---

- System: Salmonella gallinarum
MEASUREMENT KIND: MIC (µg/mL)

- LINE NOTATION: "CCn1cc(C(=O)O)c(=O)c2cc3c(cc21)OCO3"
  TGT: "Salmonella gallinarum"
  MIC / µg/mL: 1.25
- LINE NOTATION: "CCn1cc(C(=O)O)c(=O)c2cc(Cl)ccc21"
  TGT: "Salmonella gallinarum"
  MIC / µg/mL: 20

(P) CCn1cc(C(=O)O)c(=O)c2cc(C)ccc21
(Q) CCn1cc(C(=O)O)c(=O)c2ccc(C)cc21
Between item P and item Q , which reported MIC is smaller? State your choice using its label.
Q
(Q: 1.25 µg/mL, P: 20 µg/mL)

---

- Tested on: Staphylococcus aureus
- METHOD NOTES: Antimicrobial activity against Staphylococcus aureus ATCC […] assessed as growth inhibition by agar dilution-streak method
- Type: functional
Here the recorded MIC is given for each entry.

Below: 2 compounds and their reported MIC.
- LINE NOTATION: "CCn1c(C)c(C(=O)O)c(=O)c2cc3c(cc21)OCO3"
  MIC: "> 100 µg/mL"
- LINE NOTATION: "CCn1cc(C(=O)O)c(=O)c2cccc(C)c21"
  MIC: "> 100 µg/mL"

Give the measured MIC of CCn1c(O)c(C(=O)O)c(=O)c2cc3c(cc21)OCO3 .
> 100 µg/mL

---

- Tested on: Escherichia coli
- METHOD NOTES: Antimicrobial activity against Escherichia coli 9637 assessed as growth inhibition by agar dilution-streak method
- Format: functional
MEASUREMENT KIND: MIC

- LINE NOTATION: "CCn1cc(C(=O)O)c(=O)c2cccc(C)c21"
  TGT: "Escherichia coli"
  MIC: "> 100 µg/mL"
- LINE NOTATION: "CCn1c(C)c(C(=O)O)c(=O)c2cc3c(cc21)OCO3"
  TGT: "Escherichia coli"
  MIC: "> 100 µg/mL"

Consider the record given below.
Requested field: MIC. Item: CCn1c(O)c(C(=O)O)c(=O)c2cc3c(cc21)OCO3
> 100 µg/mL

---

Hi! I'm sharing some MIC results obtained with Salmonella gallinarum.

State the recorded MIC for this entry: CCn1c(O)c(C(=O)O)c(=O)c2cc3c(cc21)OCO3
> 100 µg/mL

Reported MIC, molecule CCn1cc(C(=O)O)c(=O)c2cccc(C)c21 : ____
> 100 µg/mL

Fill in the blank: the reported MIC of CCn1c(C)c(C(=O)O)c(=O)c2cc3c(cc21)OCO3 is ____.
> 100 µg/mL
